Tested on: Danio rerio Tg(wt1b:EGFP) embryo, pronephros
Test: fraction of imaged embryos annotated as normal kidney; higher = less nephrotoxic; extreme values may be limits of the assay
Details: 25 µM; exposure: 24-48 hpf
Counter-ions that a name gives are not always drawn.
Outcome label depends on fraction of imaged embryos annotated as normal kidney relative to 0.8: at/above gives label 1, below gives label 0.

## Task Answer whether fraction of imaged embryos annotated as normal kidney of CC(=O)OCC(=O)[C@@]1(O)CC[C@H]2[C@@H]3CCC4=CC(=O)C=C[C@]4(C)[C@@]3(F)[C@@H](O)C[C@@]21C [Isoflupredone acetate] is greater than or equal to 0.8.
## Result label 0

## Task Please check the record CCCCOc1ccc(CC(=O)NO)cc1 and state if its fraction of imaged embryos annotated as normal kidney is at or above 0.8.
## Result label 0

## Task Reported fraction of imaged embryos annotated as normal kidney at or above 0.8? CN(C/C=C/c1ccccc1)Cc1cccc2ccccc12 [Naftifine hydrochloride]
## Result label 1

## Task Entry CCCCCNC(=N)N/N=C/c1c[nH]c2ccc(OC)cc12 [Tegaserod maleate] : is its fraction of imaged embryos annotated as normal kidney no less than 0.8?
## Result label 0

## Task Entry CCN(CC)CCOC(=O)c1ccc(N)cc1 [Procaine hydrochloride] : is its fraction of imaged embryos annotated as normal kidney no less than 0.8?
## Result label 0

## Task Is fraction of imaged embryos annotated as normal kidney at least 0.8? Consider C[C@@H]1NC(=O)NC1=O
## Result label 1

## Task Please indicate if the recorded fraction of imaged embryos annotated as normal kidney for O=C(O)c1cccnc1 meets or exceeds 0.8.
## Result label 1

## Task I'd appreciate it if you could say whether COc1ccc2cc(CCC(C)=O)ccc2c1 has fraction of imaged embryos annotated as normal kidney at least equal to 0.8.
## Result label 0

## Task Entry C/C(=C\C(=O)OCCCCCCCCC(=O)O)C[C@@H]1OC[C@H](C[C@@H]2O[C@H]2[C@@H](C)[C@H](C)O)[C@@H](O)[C@H]1O : is its fraction of imaged embryos annotated as normal kidney no less than 0.8?
## Result label 0

## Task Check this molecule for fraction of imaged embryos annotated as normal kidney at or above 0.8: CN[C@@H]1[C@H](O)[C@H](NC)[C@H]2O[C@@]3(O)C(=O)C[C@@H](C)O[C@H]3O[C@@H]2[C@H]1O [Spectinomycin dihydrochloride]
## Result label 1

## Task Can N[C@@H]1CCCCN(c2c(F)cc3c(=O)c(C(=O)O)cn(C4CC4)c3c2Cl)C1 [Besifloxacin hydrochloride] be said to have fraction of imaged embryos annotated as normal kidney at or above 0.8?
## Result label 1

## Task Test whether the molecule CCN(CC)C(=S)SSC(=S)N(CC)CC records fraction of imaged embryos annotated as normal kidney of 0.8 or higher.
## Result label 0

## Task Tell me whether fraction of imaged embryos annotated as normal kidney is at least 0.8 here: Nc1ccn([C@@H]2CS[C@H](CO)O2)c(=O)n1
## Result label 0

## Task In plain terms: is recorded fraction of imaged embryos annotated as normal kidney at least 0.8 for CCN(CC)Cc1cc(Nc2ccnc3cc(Cl)ccc23)ccc1O [Amodiaquin dihydrochloride dihydrate] ?
## Result label 1
